Values compiled from PubChem BioAssay (EPA / NIEHS).

Experiment: APR_HepG2_StressKinase_24hr: Apredica 24-hour HepG2 Assay for Stress Kinase (AID 2282922)
Settings: HepG2 stress kinase (phospho-c-Jun) imaging, actives raise or lower the signal
Active and inactive are the calls of the source. Rule for the calls: active = hit-call score of the fitted dose curve at least 0.9, where 1 is the maximum; inactive = score below 0.9.
API: response.call in active, inactive

INPUT: Can you look up the reported call for CCOCCOC(C)=O for me?
OUTPUT: inactive

INPUT: Short answer needed: outcome of this test for CN(C)CCO ?
OUTPUT: inactive

INPUT: What classification did ClC1=C(Cl)[C@]2(Cl)[C@@H]3[C@@H]4C[C@@H]([C@H]5O[C@@H]45)[C@@H]3[C@@]1(Cl)C2(Cl)Cl end up with in this test?
OUTPUT: inactive

INPUT: Please indicate how the test categorized C[C@]12CCC(=O)C=C1CC[C@@H]1[C@@H]2CC[C@@]2(C)[C@H]1CC[C@]2(C)O .
OUTPUT: inactive

INPUT: Write down the call the test reported for this molecule. Item: O=S(=O)(O)C(F)(F)C(F)(F)C(F)(F)C(F)(F)C(F)(F)C(F)(F)F
OUTPUT: inactive

INPUT: Give the logged outcome of this assay for the following molecule: Cc1cc(O)ccc1Cl
OUTPUT: inactive

INPUT: Per the records of this test, what outcome belongs to Clc1ccc(C(c2ccccc2Cl)C(Cl)(Cl)Cl)cc1 (stereo unspecified) ?
OUTPUT: active

INPUT: # outcome recorded in this test, key = Oc1ccc(C(c2ccc(O)cc2)(C(F)(F)F)C(F)(F)F)cc1
OUTPUT: inactive

INPUT: Called result for O=NN(c1ccccc1)c1ccccc1
OUTPUT: inactive

INPUT: What classification did Cc1cc2c3c(c1)C(c1ccccc1)=N[C@@H](NC(=O)c1ccncc1)C(=O)N3CC2 end up with in this test?
OUTPUT: inactive

INPUT: Please share the test call associated with Cc1ccccc1CO[C@@H]1C[C@@]2(C(C)C)CC[C@]1(C)O2 .
OUTPUT: inactive

###

Assay: ATG_TA_CIS: Attagene CIS-FACTORIAL HepG2 Assay for human TA Basal Promoter (AID 2282964)
Conditions: HepG2 Attagene CIS-factorial TA basal promoter reporter; actives raise or lower the signal
The source made the active and inactive calls. The calls were made as follows: active = hit-call score of the fitted dose curve at least 0.9, where 1 is the maximum; inactive = score below 0.9.
measurementLabel: outcome

Answered examples (10):
INSERT INTO measurements (recordsmiles, result) VALUES
  ('Nc1ccc(-c2ccc(N)cc2)cc1', 'inactive'),
  ('O=S(=O)(O)C(F)(F)C(F)(F)C(F)(F)C(F)(F)F', 'inactive'),
  ('Nn1cnnc1', 'inactive'),
  ('Cc1cc(O)ccc1Cl', 'inactive'),
  ('Cc1ccccc1CO[C@@H]1C[C@@]2(C(C)C)CC[C@]1(C)O2', 'inactive'),
  ('CCCCCCOC(=O)c1ccccc1C(=O)OCCCCCC', 'inactive'),
  ('CN(C)CCO', 'inactive'),
  ('OCC(O)CO', 'inactive'),
  ('O=S(=O)(O)C(F)(F)C(F)(F)C(F)(F)C(F)(F)C(F)(F)C(F)(F)F', 'inactive'),
  ('O=NN(c1ccccc1)c1ccccc1', 'inactive');

Let us examine a further case.
INPUT: Provide outcome value for the following compound: COc1ccc(O)c(C(C)(C)C)c1
OUTPUT: inactive

###

Read-out: succinate dehydrogenase complex iron sulfur subunit B (SDHB), SDHB (gene 6390)
Test: LTEA_HepaRG_SDHB: Life Technologies and Expression Analysis (LTEA) Assay for succinate dehydrogenase complex iron sulfur subunit B (SDHB) using HepaRG (AID 2283528)
Details: mRNA level, 48 h; actives raise or lower the signal
Activity calls are given as the source filed them. How the source made its calls: active means hit-call score of the fitted dose curve at least 0.9, where 1 is the maximum; inactive means score below 0.9.
Tick one outcome: Y for active, N for inactive

INPUT: Please let me know the test result on file for CCCCCCCCCC[N+](C)(C)CCCCCCCCCC .
OUTPUT: N

INPUT: Answer briefly: the call reported for c1ccc(-c2ccccc2)cc1 in this assay.
OUTPUT: N

INPUT: # lookup: test call for ClC1=C(Cl)[C@]2(Cl)[C@@H]3[C@@H](Cl)[C@H]4O[C@H]4[C@@H]3C1(Cl)C2(Cl)Cl
OUTPUT: N

INPUT: Can you look up the reported call for CCSC(=O)N(CC)C1CCCCC1 for me?
OUTPUT: N

INPUT: So what was the verdict on CC(c1ccc(O)cc1)(c1ccc(O)cc1)c1ccc(O)cc1 in this test?
OUTPUT: Y

INPUT: Write down the call the test reported for this compound. Item: CC(C)(O)C(=O)Nc1ccc([N+](=O)[O-])c(C(F)(F)F)c1
OUTPUT: N

INPUT: Which outcome did this test record for the compound NS(=O)(=O)C(F)(F)C(F)(F)C(F)(F)C(F)(F)C(F)(F)C(F)(F)C(F)(F)C(F)(F)F ?
OUTPUT: Y

INPUT: What did the test return for Cc1cccc(C)c1N ?
OUTPUT: N

INPUT: Record lookup: outcome of this test for Cc1cc2c3c(c1)C(c1ccccc1)=N[C@@H](NC(=O)c1ccncc1)C(=O)N3CC2 ?
OUTPUT: N

INPUT: For CCCCCCCCOC(=O)c1ccccc1C(=O)OCCCCCCCC , which call appears in the assay record?
OUTPUT: N

INPUT: # fetch the recorded call for Cc1cc(O)ccc1Cl here
OUTPUT: N

INPUT: Assay outcome for O=S(=O)(O)C(F)(F)C(F)(F)C(F)(F)C(F)(F)C(F)(F)C(F)(F)F : what was it?
OUTPUT: Y

INPUT: Query: recorded result category for CN(C)c1nc(=O)n(C2CCCCC2)c(=O)n1C in this test
OUTPUT: N

INPUT: Recorded call for CN(C)CCO ?
OUTPUT: N
